Below is a list of entries, each paired with its recorded ELISA ratio value.
molecular target: Feline_OSMR_hlgG1_Fc (feline); test: indirect ELISA, fOSMR coated; OD ratio to antibody expression control
Sequence (chain, as listed by the source limits assumed, form in doubt): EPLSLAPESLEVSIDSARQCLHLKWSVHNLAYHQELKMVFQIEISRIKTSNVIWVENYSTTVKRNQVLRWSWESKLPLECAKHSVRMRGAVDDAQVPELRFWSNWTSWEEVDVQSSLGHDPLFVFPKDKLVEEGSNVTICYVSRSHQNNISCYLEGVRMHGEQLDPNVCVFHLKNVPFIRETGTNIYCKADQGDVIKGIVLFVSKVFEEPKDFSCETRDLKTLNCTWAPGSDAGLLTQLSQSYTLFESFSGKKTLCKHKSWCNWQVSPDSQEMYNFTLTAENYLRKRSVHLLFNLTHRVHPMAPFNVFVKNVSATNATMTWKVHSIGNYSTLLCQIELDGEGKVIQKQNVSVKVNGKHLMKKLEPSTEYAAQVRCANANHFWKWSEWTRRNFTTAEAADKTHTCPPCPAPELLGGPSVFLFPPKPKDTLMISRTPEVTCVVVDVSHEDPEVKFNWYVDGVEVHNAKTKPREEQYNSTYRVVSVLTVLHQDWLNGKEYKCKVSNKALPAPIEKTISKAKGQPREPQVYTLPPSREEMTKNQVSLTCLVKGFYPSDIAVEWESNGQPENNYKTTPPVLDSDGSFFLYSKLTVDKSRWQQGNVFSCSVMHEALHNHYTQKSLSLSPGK
Give the number; OD ratio is assumed, so skip it.

Entry Mu_10F07_VL (SEQ ID NO: 41)_L33A (antibody, V domains shown) VH: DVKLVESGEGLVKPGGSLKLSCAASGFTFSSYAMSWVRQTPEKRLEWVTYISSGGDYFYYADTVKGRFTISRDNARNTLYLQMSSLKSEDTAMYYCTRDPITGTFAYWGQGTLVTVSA VL: DIQMTQTTSSLSASLGDRVTISCRASQDITNYANWYQQKPDGTVKLLIYYTSTLHSGVPSRFSGSGSGTDFSLTISNLEQEDIATYFCQQGHMLPWTFGGGTKLEIKR ; ELISA ratio = 0.15

Entry Mu_10F07_VH (SEQ ID NO: 39)_Y107A (antibody, V domains shown) VH: DVKLVESGEGLVKPGGSLKLSCAASGFTFSSYAMSWVRQTPEKRLEWVTYISSGGDYFYYADTVKGRFTISRDNARNTLYLQMSSLKSEDTAMYYCTRDPITGTFAAWGQGTLVTVSA VL: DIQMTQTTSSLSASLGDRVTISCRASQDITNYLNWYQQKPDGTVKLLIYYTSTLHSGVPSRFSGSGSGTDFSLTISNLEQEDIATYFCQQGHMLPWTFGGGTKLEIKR ; ELISA ratio = 0.375

Entry Mu_09E09_VH (SEQ ID NO: 35)_F105A (antibody, V domains shown) VH: DVKLVESGEGLVKPGGSLKLSCAASGFTFSSYAMSWVRQTPEKRLEWVAYISSGGDYIYYADTVKGRFTISRDNARNTLYLQMSSLKSEDTAMYYCTRDPITGTAAYWGQGTLVTVSA VL: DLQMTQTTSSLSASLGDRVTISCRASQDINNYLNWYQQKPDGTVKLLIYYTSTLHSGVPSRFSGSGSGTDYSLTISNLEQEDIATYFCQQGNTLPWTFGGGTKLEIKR ; ELISA ratio = 0.256
